measured-on: canine TRPM8 (Canis lupus familiaris, UniProt Q1A7N1)
Construct: expressed in transfected cells
Sequence (Q1A7N1 1-1104): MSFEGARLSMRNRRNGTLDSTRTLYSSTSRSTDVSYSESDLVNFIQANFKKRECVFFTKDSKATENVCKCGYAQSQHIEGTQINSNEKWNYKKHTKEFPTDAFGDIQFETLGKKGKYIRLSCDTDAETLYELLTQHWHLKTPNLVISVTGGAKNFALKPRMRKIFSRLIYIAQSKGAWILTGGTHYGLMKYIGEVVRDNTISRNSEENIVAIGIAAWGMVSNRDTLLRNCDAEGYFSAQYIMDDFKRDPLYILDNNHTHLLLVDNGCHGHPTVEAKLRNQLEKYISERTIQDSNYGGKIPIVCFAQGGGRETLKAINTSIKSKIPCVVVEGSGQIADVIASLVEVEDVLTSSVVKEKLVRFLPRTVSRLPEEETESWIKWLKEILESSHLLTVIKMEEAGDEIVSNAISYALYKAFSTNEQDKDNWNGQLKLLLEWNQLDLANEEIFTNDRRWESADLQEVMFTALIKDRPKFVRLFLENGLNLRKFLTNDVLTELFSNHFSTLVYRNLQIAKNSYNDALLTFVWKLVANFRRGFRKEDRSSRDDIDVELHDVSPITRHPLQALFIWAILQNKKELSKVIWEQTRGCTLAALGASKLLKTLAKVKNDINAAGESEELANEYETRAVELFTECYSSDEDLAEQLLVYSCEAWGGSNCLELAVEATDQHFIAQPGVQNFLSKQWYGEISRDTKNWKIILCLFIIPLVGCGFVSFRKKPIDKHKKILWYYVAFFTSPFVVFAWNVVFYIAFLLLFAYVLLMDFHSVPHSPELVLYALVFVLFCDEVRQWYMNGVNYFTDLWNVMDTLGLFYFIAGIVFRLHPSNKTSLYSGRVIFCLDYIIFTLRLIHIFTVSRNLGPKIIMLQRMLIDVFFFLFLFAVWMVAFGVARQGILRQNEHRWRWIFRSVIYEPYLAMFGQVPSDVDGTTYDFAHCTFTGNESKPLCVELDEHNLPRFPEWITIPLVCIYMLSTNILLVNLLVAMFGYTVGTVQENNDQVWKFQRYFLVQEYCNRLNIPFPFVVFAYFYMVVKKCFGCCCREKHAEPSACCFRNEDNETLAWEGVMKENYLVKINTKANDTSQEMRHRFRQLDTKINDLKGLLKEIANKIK
experimental-details: In Vitro Canine TRPM8 Functional Assay (Ca2+-sensitive fluorescent dye, icilin activation, FLIPR/FDSS)
Assay type: cell-based
test-context: compound at 0.5 μM; HEK293 cells stably expressing canine TRPM8, icilin activation
property-label: % I (0.5 μM) (%)
Please give a number only; it is taken to be in %.

Input CC(C)OP(=O)(OC(C)C)C(Cc1cccc(C(F)(F)F)c1)c1sc2ccccc2c1Cl (centres unmarked) [Cpd 170] . Output % I (0.5 μM): 103

The molecule listed as CC(C)OP(=O)(OC(C)C)C(Cc1cc(F)cc(C(F)(F)F)c1)c1sc2ccccc2c1Cl (centres unmarked) [Cpd 169] has a reported % I (0.5 μM) of 104

// recorded % I (0.5 μM) for CCOP(=O)(OCC)C(Cc1ccc(Cl)cc1)c1sc2ccccc2c1Cl (centres unmarked) [Cpd 293] : 103

Field % I (0.5 μM) (entry CCOP(=O)(OCC)C(Cc1ccc(C(F)(F)F)c(F)c1)c1sc2ccccc2c1Br (centres unmarked) [Cpd 144] ) reads 101

Lookup result for CCOP(=O)(OCC)C(Cc1c(F)c(F)c(OC)c(F)c1F)c1sc2ccccc2c1Br (centres unmarked) [Cpd 160] ; measured % I (0.5 μM): 87

Given item CC(C)OP(=O)(OC(C)C)C(Cc1c(F)c(F)c(O)c(F)c1F)c1sc2ccccc2c1Br (centres unmarked) [Cpd 229] , the value recorded as its % I (0.5 μM) is 95

Consider CCOP(=O)(OCC)C(Cc1ccc(SC(F)(F)F)cc1)c1sc2ccccc2c1Br (centres unmarked) [Cpd 153] . Its measured % I (0.5 μM) is 103

CCOP(=O)(OCC)C(Cc1ccc(F)c(F)c1)c1sc2ccccc2c1-c1ccccc1O (centres unmarked) [Cpd 215] has a reported % I (0.5 μM) of 101

Entry CCOP(=O)(OCC)C(Cc1ccc(F)c(F)c1)c1sc2ccccc2c1-c1ccccc1F (centres unmarked) [Cpd 216] — recorded % I (0.5 μM) = 100

% I (0.5 μM) recorded for this molecule, CCOP(=O)(OCC)C(Cc1ccc(F)c(C(F)(F)F)c1)c1sc2cccc(F)c2c1Br (centres unmarked) [Cpd 223] , is 102

Lab book: % I (0.5 μM) of CC(C)CCOP(=O)(OCCC(C)C)C(Cc1ccc(F)c(F)c1)c1sc2ccccc2c1Br (centres unmarked) [Cpd 211] noted as 97

Measured % I (0.5 μM) of CC(C)OP(=O)(OC(C)C)C(Cc1cc(C(F)(F)F)ccc1F)c1sc2ccccc2c1Cl (centres unmarked) [Cpd 172] : 104

// recorded % I (0.5 μM) for CCOP(=O)(OCC)C(Cc1ccc(F)c(C(F)(F)F)c1)c1sc2ccccc2c1Cl (centres unmarked) [Cpd 294] : 103

Record summary for CCOP(=O)(OCC)C(Cc1cc(Cl)ccc1F)c1sc2ccccc2c1Br (centres unmarked) [Cpd 307] : reported % I (0.5 μM) = 103

% I (0.5 μM) reported for this molecule CC(C)OP(=O)(OC(C)C)C(Cc1cc(O)c(Cl)cc1F)c1sc2ccccc2c1Br (centres unmarked) [Cpd 232] : 99

% I (0.5 μM) for COc1cc(CC(c2sc3ccccc3c2Br)P(=O)(OC(C)C)OC(C)C)ccc1F (centres unmarked) [Cpd 157] is 103

Consider CCOP(=O)(OCC)C(Cc1cccc([N+](=O)[O-])c1)c1sc2ccccc2c1Br (centres unmarked) [Cpd 315] . Its measured % I (0.5 μM) is 103

Consider CCOP(=O)(OCC)C(Cc1cc(O)c(Cl)cc1F)c1sc2ccccc2c1Br (centres unmarked) [Cpd 231] . Its measured % I (0.5 μM) is 98

// sample CCOP(=O)(OCC)C(Cc1cc(OC)c(Cl)cc1F)c1sc2ccccc2c1Br (centres unmarked) [Cpd 164] , its % I (0.5 μM) was 94

Noted for COc1c(F)c(F)c(CC(c2sc3ccccc3c2Br)P(=O)(OC(C)C)OC(C)C)c(F)c1F (centres unmarked) [Cpd 161] : its % I (0.5 μM) reads 103

According to the records, this molecule CCOP(=O)(OCC)C(Cc1ccc(S(=O)(=O)C(F)(F)F)cc1)c1sc2ccccc2c1Cl (centres unmarked) [Cpd 300] displays % I (0.5 μM) of 103

Input CCOP(=O)(OCC)C(Cc1ccccc1C(F)(F)F)c1sc2ccccc2c1Cl (centres unmarked) [Cpd 279] . Output % I (0.5 μM): 97

% I (0.5 μM) recorded for this molecule, CC(C)OP(=O)(OC(C)C)C(Cc1ccc(F)c(F)c1)c1sc2ncccc2c1Br (centres unmarked) [Cpd 207] , is 99

Noted for CC(C)OP(=O)(OC(C)C)C(Cc1cccc(Cl)c1)c1sc2ccccc2c1Br (centres unmarked) [Cpd 166] : its % I (0.5 μM) reads 102

Sample CCOP(=O)(OCC)C(Cc1ccc(F)c(Cl)c1)c1sc2ccccc2c1Cl (centres unmarked) [Cpd 297] ; % I (0.5 μM) observed: 103

Reported % I (0.5 μM) for CCOP(=O)(OCC)C(Cc1cc(C(F)(F)F)ccc1F)c1sc2ccccc2c1Cl (centres unmarked) [Cpd 286] was 102

The molecule identified as CCOP(=O)(OCC)C(Cc1ccc(C(F)(F)F)cc1F)c1sc2ccccc2c1Cl (centres unmarked) [Cpd 291] registered its % I (0.5 μM) at 103

Record CCOP(=O)(OCC)C(Cc1cccc(Cl)c1)c1sc2ccccc2c1Br (centres unmarked) [Cpd 137] . Reported % I (0.5 μM): 102

Measured % I (0.5 μM) of CC(C)OP(=O)(OC(C)C)C(Cc1ccc(Cl)c(C(F)(F)F)c1)c1sc2ccccc2c1Cl (centres unmarked) [Cpd 167] : 104

So, CCOP(=O)(OCC)C(Cc1ccc(F)cc1)c1sc2ccccc2c1Br (centres unmarked) [Cpd 238] ? Its % I (0.5 μM) was 104

Reported % I (0.5 μM) for CCOP(=O)(OCC)C(Cc1ccc(F)cc1C(F)(F)F)c1sc2ccccc2c1Br (centres unmarked) [Cpd 245] was 103

GET /value?item= CCOP(=O)(OCC)C(Cc1ccc(SC)cc1)c1sc2ccccc2c1Cl (centres unmarked) [Cpd 299] &field=% I (0.5 μM) returns 101
